# TESTED_ON: T1, μMASS^2A (rat)
# T1 chain: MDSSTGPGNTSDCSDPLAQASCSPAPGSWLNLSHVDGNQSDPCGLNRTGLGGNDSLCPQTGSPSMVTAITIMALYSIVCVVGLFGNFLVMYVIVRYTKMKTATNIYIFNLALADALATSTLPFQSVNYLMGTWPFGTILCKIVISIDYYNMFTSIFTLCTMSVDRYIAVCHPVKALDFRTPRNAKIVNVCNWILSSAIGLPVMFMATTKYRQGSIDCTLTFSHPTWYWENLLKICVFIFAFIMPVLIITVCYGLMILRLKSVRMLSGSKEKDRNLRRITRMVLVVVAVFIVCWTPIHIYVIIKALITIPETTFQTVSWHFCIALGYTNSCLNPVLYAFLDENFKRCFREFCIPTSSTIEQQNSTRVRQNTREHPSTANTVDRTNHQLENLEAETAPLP
# ASSAY_PROTOCOL: other fluorescence titration
VALUE_KIND: pKd
Hey, just a heads up that pKd is the negative log base 10 of the concentration in molar.

Q. Field request: pKd | item: YGGFMTSEKSQTPLVTLFKNAIIKNAYKKGE (peptide, UniProt P01189 237-267, looked up) [β-endorphin]
A. 5.93
